- ASSAY_TARGET: UniProt:P00533
- ASSAY_SUMMARY: Inhibition of a panel of kinases, in vitro HotSpot kinase assay: EGFR
- Type: biochemical
- PARTICULARS: D-compounds panel data; 1 μM ATP
Listed here are compounds together with their documented IC50.

{"COMPOUND": "Cc1ccc(-c2cnc([C@@H]3CCCN(c4cnc(C(N)=O)c(Nc5cc(C)ns5)n4)C3)[nH]2)cc1 [Example D-137]", "EXPERIMENTAL_READOUT": "IC50", "MEASURED_RESULT": "1 to 10 µM"}
{"COMPOUND": "C[C@H]1C[C@H](NC(=O)c2ccc(C3CC3)cc2)CN(c2cnc(C(N)=O)c(Nc3cnn(C)c3)n2)C1 [Example D-34]", "EXPERIMENTAL_READOUT": "IC50", "MEASURED_RESULT": "> 10 µM"}
{"COMPOUND": "C[C@@H]1[C@H](NC(=O)c2ccc(C3CC3)cc2C(F)(F)F)CCCN1c1cnc(C(N)=O)c(Nc2cnn(C)c2)n1 [Example D-25]", "EXPERIMENTAL_READOUT": "IC50", "MEASURED_RESULT": "1 to 10 µM"}

Next item in the queue.
Recorded IC50 for C[C@@H]1[C@H](NC(=O)c2ccc3c(cnn3C)c2)CCCN1c1cnc(C(N)=O)c(Nc2cnn(C)c2)n1 [Example D-254] , please?
1 to 10 µM

----------
- ASSAY_TARGET: TEC (Homo sapiens, UniProt P42680)
- Sequence (P42680 whole entry): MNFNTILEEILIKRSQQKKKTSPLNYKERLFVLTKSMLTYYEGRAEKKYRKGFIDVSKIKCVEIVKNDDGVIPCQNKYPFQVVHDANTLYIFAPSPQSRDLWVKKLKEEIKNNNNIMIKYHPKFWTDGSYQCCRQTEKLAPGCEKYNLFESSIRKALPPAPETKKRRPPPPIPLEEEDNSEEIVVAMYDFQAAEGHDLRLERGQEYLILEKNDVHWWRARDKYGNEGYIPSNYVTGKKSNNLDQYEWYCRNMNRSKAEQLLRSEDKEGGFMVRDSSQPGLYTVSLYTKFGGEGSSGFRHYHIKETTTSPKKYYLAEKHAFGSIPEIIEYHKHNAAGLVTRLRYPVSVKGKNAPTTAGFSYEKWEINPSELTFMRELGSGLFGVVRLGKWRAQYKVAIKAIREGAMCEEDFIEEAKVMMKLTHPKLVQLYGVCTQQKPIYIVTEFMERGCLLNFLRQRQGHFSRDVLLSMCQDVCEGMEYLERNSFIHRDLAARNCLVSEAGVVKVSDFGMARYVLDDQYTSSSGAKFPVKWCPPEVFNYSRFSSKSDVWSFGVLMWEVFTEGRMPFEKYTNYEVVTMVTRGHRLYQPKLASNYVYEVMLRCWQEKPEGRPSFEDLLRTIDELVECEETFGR
- ASSAY_SUMMARY: Inhibition of a panel of kinases, in vitro HotSpot kinase assay: TEC
- Type: biochemical
- PARTICULARS: Table 13, A compounds; 1 μM ATP
pIC50: −log10 of the molar value.
EXPERIMENTAL_READOUT: pIC50

# example entries with known answers
{"COMPOUND": "CN(C)C(=O)N[C@@H]1CCCN(c2cnc(C(N)=O)c(Nc3ccc(C4(C)CCN(C5CCCC5)CC4)cc3)n2)[C@@H]1CO [Example A-101]", "pIC50": "6.00 to 7.00"}
{"COMPOUND": "C[C@@H]1[C@H](NC(=O)c2ccc(C3CC3)cc2F)CCCN1c1cnc(C(N)=O)c(Nc2ccc(N3CCN(C)CC3)c(F)c2)n1 [Example A-171]", "pIC50": "7.00 to 8.00"}
{"COMPOUND": "CN1CCN(Cc2ccc(Nc3nc(N4CCC[C@@H](n5ccc6cc(C7CC7)ccc6c5=O)C4)cnc3C(N)=O)cc2)CC1 [Example A-111]", "pIC50": "7.00 to 8.00"}
{"COMPOUND": "C[C@@H]1[C@H](NC(=O)c2ccc(C3CC3)cc2)CCCN1c1cnc(C(N)=O)c(Nc2cnn(CCN(C)C)c2)n1 [Example A-182]", "pIC50": "6.00 to 7.00"}

Recorded pIC50 for Cc1nn(C)cc1Nc1nc(N2CCC[C@@H](NC(=O)c3ccc(C4CC4)cc3)[C@H]2C)cnc1C(N)=O [Example A-192] , please?
5.00 to 6.00

Query C[C@@H]1[C@H](NC(=O)c2ccc(C3CC3)cc2)CCCN1c1cnc(C(N)=O)c(Nc2ccc(N3CCN(C)CC3)cc2)n1 [Example A-170] next
7.00 to 8.00

----------
- ASSAY_TARGET: LCK (Homo sapiens)
- Sequence (P06239 whole entry): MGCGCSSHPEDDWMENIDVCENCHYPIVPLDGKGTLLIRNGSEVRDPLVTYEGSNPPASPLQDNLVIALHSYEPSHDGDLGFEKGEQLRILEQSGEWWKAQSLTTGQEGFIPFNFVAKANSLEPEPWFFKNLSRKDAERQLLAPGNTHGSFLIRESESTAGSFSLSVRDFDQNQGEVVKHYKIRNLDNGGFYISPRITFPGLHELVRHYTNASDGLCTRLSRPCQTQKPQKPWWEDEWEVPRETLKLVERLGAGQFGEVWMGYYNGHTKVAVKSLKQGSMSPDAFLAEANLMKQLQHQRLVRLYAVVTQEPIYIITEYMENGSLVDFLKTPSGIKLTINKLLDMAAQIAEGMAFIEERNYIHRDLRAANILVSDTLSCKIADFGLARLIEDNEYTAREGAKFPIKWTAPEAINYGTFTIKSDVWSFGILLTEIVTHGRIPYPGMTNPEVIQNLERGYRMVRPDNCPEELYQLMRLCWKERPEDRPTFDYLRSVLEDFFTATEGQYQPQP
- ASSAY_SUMMARY: Inhibition of a panel of kinases, in vitro HotSpot kinase assay: LCK
- Type: biochemical
- PARTICULARS: D-compounds panel data; 1 μM ATP; read-out: IC50 LCK
EXPERIMENTAL_READOUT: IC50

# example entries with known answers
{"MOLECULE": "C[C@@H]1[C@H](NC(=O)c2ccc(C(C)(C)O)nc2)CCCN1c1cnc(C(N)=O)c(Nc2cnn(C)c2)n1", "ASSAY_TARGET": "LCK (Homo sapiens)", "EXPERIMENTAL_READOUT": "IC50", "MEASURED_RESULT": "10 to 100 nM"}
{"MOLECULE": "CC(=O)N1CCC(c2ccc(Nc3nc(N4CCC[C@@H](NC(=O)c5ccc(C6CC6)cc5)[C@H]4C)cnc3C(N)=O)cc2)CC1", "ASSAY_TARGET": "LCK (Homo sapiens)", "EXPERIMENTAL_READOUT": "IC50", "MEASURED_RESULT": "100 to 1000 nM"}
{"MOLECULE": "C[C@@H]1[C@H](NC(=O)c2ccc(C3CC3)cc2)CCCN1c1cnc(C(N)=O)c(Nc2cnn(C3CCN(C(=O)C4(C)COC4)CC3)c2)n1", "ASSAY_TARGET": "LCK (Homo sapiens)", "EXPERIMENTAL_READOUT": "IC50", "MEASURED_RESULT": "10 to 100 nM"}
{"MOLECULE": "CN1CCN(C(=O)c2ccc(Nc3nc(N[C@H]4CC[C@@H](NC(=O)N(C)C)CC4)cnc3C(N)=O)cc2)CC1", "ASSAY_TARGET": "LCK (Homo sapiens)", "EXPERIMENTAL_READOUT": "IC50", "MEASURED_RESULT": "10 to 100 nM"}

Recorded IC50 for "Cc1cc(Nc2nc(N3CCC[C@@H](NC(=O)c4ccc(C(C)(C)O)cc4)[C@H]3C)cnc2C(N)=O)sn1" , please?
10 to 100 nM

Query "C[C@@H]1[C@H](NC(=O)c2ccc(S(F)(F)(F)(F)F)cc2)CCCN1c1cnc(C(N)=O)c(Nc2cnn(C)c2)n1" next
100 to 1000 nM

Query "C[C@@H]1[C@H](NC(=O)c2cnc(C(C)(C)C)s2)CCCN1c1cnc(C(N)=O)c(Nc2cnn(C)c2)n1" next
10 to 100 nM

Query "C[C@@H]1[C@H](NC(=O)c2ccc3scnc3c2)CCCN1c1cnc(C(N)=O)c(Nc2cnn(C)c2)n1" next
10 to 100 nM

Query C[C@@H]1[C@H](NC(=O)c2ccc(C(C)(O)CO)cc2)CCCN1c1cnc(C(N)=O)c(Nc2cnn(C)c2)n1 (single isomer, unassigned) [Example D-265] next
100 to 1000 nM

----------
Listed here are molecules together with their documented IC50.
- ASSAY_TARGET: EGFR (Homo sapiens, UniProt P00533)
- Sequence (P00533 25-1210): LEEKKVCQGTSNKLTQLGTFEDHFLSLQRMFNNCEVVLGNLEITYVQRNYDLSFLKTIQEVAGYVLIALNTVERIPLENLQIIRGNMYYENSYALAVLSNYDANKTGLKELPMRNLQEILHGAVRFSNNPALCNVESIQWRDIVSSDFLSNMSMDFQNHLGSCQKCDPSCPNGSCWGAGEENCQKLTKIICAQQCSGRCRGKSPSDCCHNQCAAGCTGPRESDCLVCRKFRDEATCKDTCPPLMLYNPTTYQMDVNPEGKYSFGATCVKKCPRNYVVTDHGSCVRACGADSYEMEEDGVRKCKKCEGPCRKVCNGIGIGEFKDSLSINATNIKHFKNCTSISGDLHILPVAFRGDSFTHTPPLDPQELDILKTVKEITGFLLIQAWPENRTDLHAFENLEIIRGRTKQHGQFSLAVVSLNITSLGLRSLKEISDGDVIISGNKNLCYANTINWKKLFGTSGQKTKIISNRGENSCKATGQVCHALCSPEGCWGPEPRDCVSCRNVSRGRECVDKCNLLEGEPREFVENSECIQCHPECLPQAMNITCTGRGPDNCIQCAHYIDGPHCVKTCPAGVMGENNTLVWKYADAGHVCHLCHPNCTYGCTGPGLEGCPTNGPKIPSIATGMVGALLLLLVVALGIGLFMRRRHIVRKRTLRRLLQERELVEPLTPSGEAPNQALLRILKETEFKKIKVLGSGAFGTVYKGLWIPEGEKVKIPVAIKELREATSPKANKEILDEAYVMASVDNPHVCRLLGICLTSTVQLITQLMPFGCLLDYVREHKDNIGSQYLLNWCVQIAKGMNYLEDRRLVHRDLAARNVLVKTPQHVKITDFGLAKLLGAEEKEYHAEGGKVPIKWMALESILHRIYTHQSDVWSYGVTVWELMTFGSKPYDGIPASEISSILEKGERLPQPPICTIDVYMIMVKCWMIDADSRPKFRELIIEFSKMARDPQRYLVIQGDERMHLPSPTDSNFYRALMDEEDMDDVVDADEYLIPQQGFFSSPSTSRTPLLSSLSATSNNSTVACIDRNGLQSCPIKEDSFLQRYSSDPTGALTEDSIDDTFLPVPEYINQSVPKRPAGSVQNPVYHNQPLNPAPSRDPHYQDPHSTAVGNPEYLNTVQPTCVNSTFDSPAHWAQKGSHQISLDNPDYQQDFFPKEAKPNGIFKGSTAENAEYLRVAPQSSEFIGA
- ASSAY_SUMMARY: Inhibition of a panel of kinases, in vitro HotSpot kinase assay: EGFR
- Format: biochemical
- PARTICULARS: E compounds, Table 17

# example entries with known answers
{"MOLECULE": "C=CC(=O)N1CCC[C@@H](Nc2nnc(C(N)=O)c(Nc3cccc(-c4ncccn4)c3)n2)C1 [Example E-55]", "IC50": "10 to 100 nM"}
{"MOLECULE": "C=CC(=O)N1CCC[C@@H](Nc2nnc(C(N)=O)c(Nc3ccc(C4(C#N)CCCC4)cc3)n2)C1 [Example E-46]", "IC50": "≤ 10 nM"}
{"MOLECULE": "C=CC(=O)N1CCC[C@@H](Nc2nnc(C(N)=O)c(Nc3cccc(-n4nccn4)c3)n2)C1 [Example E-61]", "IC50": "10 to 100 nM"}
{"MOLECULE": "C=CC(=O)N[C@@H]1CCCN(c2cnc(C(N)=O)c(Nc3cc(C)ns3)n2)[C@@H]1C [Example E-97]", "IC50": "10 to 100 nM"}
{"MOLECULE": "C=CC(=O)N1CC[C@@H](N(C)c2cnc(C(N)=O)c(Nc3ccc(C4(C)CCN(C5CCCC5)CC4)cc3)n2)C1 [Example E-106]", "IC50": "≤ 10 nM"}
{"MOLECULE": "C=CC(=O)N1CCC[C@@H](Nc2nnc(C(N)=O)c(Nc3ccc(-n4nccn4)cc3)n2)C1 [Example E-67]", "IC50": "10 to 100 nM"}
{"MOLECULE": "C=CC(=O)N1CCC[C@@H](Nc2nnc(C(N)=O)c(Nc3ccc(-c4ncccn4)cc3)n2)C1 [Example E-41]", "IC50": "10 to 100 nM"}
{"MOLECULE": "C=CC(=O)N1CCC[C@@H](Nc2nnc(C(N)=O)c(Nc3ccc(C(C)(C)C)cc3)n2)C1 [Example E-24]", "IC50": "≤ 10 nM"}

Recorded IC50 for C=CC(=O)N1CCC[C@@H](Nc2nnc(C(N)=O)c(Nc3ccc(-c4ncco4)cc3)n2)C1 [Example E-40] , please?
≤ 10 nM

Query C=CC(=O)N1CCC[C@@H](N(C)c2cnc(C(N)=O)c(Nc3ccc(C4(C)CCN(C5CCCC5)CC4)cc3)n2)C1 [Example E-103] next
≤ 10 nM

Query C[C@@H]1[C@H](NC(=O)c2ccc(C3CC3)cc2)CCCN1c1cnc(C(N)=O)c(Nc2ccc(N3CCN(C)C[C@@H]3C)cc2)n1 [Example E-148] next
100 to 1000 nM

Query C=CC(=O)N1CCC[C@@H](Nc2nnc(C(N)=O)c(Nc3ccc(-c4nccs4)cc3)n2)C1 [Example E-63] next
≤ 10 nM

Query C=CC(=O)N1CC[C@@H](N(C)c2cnc(C(N)=O)c(Nc3ccc(-c4ncccn4)cc3)n2)C1 [Example E-117] next
10 to 100 nM

Query Cn1cc(Nc2nc(N3CCC4CCN(C(=O)c5ccc(C6CC6)cc5)C4C3)cnc2C(N)=O)cn1 (stereo not shown) [Example E-141] next
100 to 1000 nM

Query C=CC(=O)N1CC[C@@H](N(C)c2nnc(C(N)=O)c(Nc3cc(C)ns3)n2)C1 [Example E-12] next
10 to 100 nM

Query C[C@@H]1[C@H](NC(=O)c2ccc(C3CC3)cc2)CCCN1c1cnc(C(N)=O)c(Nc2ccc(N3CCN(C4CCCC4)C[C@@H]3C)cc2)n1 [Example E-137] next
1000 to 10000 nM

Query C=CC(=O)N1CCC[C@@H](Nc2nnc(C(N)=O)c(Nc3ccc(C4CCN(C(=O)CC)CC4)cc3)n2)C1 [Example E-45] next
≤ 10 nM

Query C=CC(=O)N1CC[C@@H](N(C)c2cnc(C(N)=O)c(Nc3ccc(C4CCN(C5CCCC5)CC4)cc3)n2)C1 [Example E-109] next
10 to 100 nM

Query C=CC(=O)N1CC[C@@H](N(C)c2cnc(C(N)=O)c(Nc3cnn(C)c3)n2)C1 [Example E-119] next
10 to 100 nM

Query C[C@@H]1[C@H](NC(=O)c2ccc3c(c2)C(C)(C)OC3)CCCN1c1cnc(C(N)=O)c(Nc2cnn(C)c2)n1 [Example E-153] next
1000 to 10000 nM
